- System tested: hGPR65 (Homo sapiens, UniProt Q8IYL9)
- Construct: expressed in transfected cells; host or cells: HeLa (ATCC CCL-2), lentiviral transduction, pLX317
- Sequence (Q8IYL9 whole entry): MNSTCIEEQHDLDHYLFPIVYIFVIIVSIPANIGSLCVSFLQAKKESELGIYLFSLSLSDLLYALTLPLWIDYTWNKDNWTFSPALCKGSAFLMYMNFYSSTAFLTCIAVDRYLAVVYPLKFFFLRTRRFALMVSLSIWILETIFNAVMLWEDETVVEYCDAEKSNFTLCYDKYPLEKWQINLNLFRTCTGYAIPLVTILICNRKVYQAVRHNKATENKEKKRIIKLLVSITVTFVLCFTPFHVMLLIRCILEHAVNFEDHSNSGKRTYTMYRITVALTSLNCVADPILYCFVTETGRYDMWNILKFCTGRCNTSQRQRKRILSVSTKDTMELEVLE
- Protocol: cAMP detection in HeLa expression cell line, hGPR65
- Assay type: cell-based
- Assay setup: 1st hGPR column pair; NA = no activity; read-out: hGPR EC50
- Description: HeLa stable expression cell lines were produced by lentiviral transduction. Briefly, lentiviral plasmids for each GPCR with a C-terminal V5 Tag ([…]) were made in a pLX317 backbone using competent Escherichia coli (New England Biolabs, C3050H). […] cAMP was measured in cells using the Lance Ultra cAMP Kit. […] Cells were counted in HBSS (Gibco, 14025092) and then resuspended in stimulation buffer prepared according to the manufacturer’s instructions and adjusted to pH 7.2 using 1 M sodium hydroxide. […]

Compound structure | Output unit | EC50
CCCc1cc(-c2cc(O)n3ncc(C(=O)Nc4ccc(C)cc4)c3n2)no1 | µM | 1.25
Cc1ccc(NC(=O)c2cnn3c(O)cc(-c4ccc(Cl)cc4)nc23)cc1 | µM | 0.409
CC(C)OCc1ccc(-c2cc(O)n3ncc(C(=O)Nc4cccnc4)c3n2)cc1 | µM | 5.55
Cc1cnc(NC(=O)c2cnn3c(O)cc(-c4ccc(COC(C)C)cc4)nc23)cn1 | µM | 2.16
COCc1ccc(-c2cc(O)n3ncc(C(=O)Nc4ccc(C(=O)N(C)C)cc4)c3n2)cc1 | µM | 34.1
COc1cc(-c2cc(O)n3ncc(C(=O)Nc4ccc(C)cc4)c3n2)ccc1Cl | µM | 0.942
COCc1ccc(-c2cc(O)n3nccc3n2)cc1 | µM | 18.6
Cc1ccc(NC(=O)c2cnn3c(O)cc(-c4cnc(N5CCOCC5)c(Cl)c4)nc23)cc1 | µM | 2.39
Cc1ccc(NC(=O)c2cnn3c(O)cc(-c4ccc(F)cc4)nc23)cc1 | µM | 0.635
